Ref: ChEMBL document CHEMBL1135069

biological target: Integrin alpha-4/beta-1 (Homo sapiens, UniProt P05556+P13612); assay: Inhibition of [125I]VCAM-Ig binding to alpha4-beta1 (VLA-4) of human RPMI-8866 cells; type: cell-based
Sequence (P05556 whole entry): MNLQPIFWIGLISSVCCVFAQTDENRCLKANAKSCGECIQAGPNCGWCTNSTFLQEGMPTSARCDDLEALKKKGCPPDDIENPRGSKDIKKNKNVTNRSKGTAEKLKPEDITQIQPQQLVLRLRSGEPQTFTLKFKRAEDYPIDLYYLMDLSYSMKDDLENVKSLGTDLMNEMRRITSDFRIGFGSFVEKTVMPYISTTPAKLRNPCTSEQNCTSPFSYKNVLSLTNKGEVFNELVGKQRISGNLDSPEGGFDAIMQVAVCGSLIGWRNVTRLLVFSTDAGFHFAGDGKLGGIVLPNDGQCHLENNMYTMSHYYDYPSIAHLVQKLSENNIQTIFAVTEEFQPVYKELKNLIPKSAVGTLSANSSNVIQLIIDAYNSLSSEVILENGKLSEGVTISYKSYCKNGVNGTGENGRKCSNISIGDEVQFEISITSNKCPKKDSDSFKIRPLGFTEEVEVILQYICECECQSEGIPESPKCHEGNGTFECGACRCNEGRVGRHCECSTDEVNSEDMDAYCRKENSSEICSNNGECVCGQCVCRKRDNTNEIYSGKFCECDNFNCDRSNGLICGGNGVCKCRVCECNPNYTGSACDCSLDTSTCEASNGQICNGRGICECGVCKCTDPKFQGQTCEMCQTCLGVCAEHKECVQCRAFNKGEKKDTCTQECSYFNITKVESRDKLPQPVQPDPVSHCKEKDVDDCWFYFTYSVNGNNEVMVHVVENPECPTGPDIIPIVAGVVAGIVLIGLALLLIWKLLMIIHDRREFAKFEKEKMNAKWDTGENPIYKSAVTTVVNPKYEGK
Sequence (P13612 whole entry): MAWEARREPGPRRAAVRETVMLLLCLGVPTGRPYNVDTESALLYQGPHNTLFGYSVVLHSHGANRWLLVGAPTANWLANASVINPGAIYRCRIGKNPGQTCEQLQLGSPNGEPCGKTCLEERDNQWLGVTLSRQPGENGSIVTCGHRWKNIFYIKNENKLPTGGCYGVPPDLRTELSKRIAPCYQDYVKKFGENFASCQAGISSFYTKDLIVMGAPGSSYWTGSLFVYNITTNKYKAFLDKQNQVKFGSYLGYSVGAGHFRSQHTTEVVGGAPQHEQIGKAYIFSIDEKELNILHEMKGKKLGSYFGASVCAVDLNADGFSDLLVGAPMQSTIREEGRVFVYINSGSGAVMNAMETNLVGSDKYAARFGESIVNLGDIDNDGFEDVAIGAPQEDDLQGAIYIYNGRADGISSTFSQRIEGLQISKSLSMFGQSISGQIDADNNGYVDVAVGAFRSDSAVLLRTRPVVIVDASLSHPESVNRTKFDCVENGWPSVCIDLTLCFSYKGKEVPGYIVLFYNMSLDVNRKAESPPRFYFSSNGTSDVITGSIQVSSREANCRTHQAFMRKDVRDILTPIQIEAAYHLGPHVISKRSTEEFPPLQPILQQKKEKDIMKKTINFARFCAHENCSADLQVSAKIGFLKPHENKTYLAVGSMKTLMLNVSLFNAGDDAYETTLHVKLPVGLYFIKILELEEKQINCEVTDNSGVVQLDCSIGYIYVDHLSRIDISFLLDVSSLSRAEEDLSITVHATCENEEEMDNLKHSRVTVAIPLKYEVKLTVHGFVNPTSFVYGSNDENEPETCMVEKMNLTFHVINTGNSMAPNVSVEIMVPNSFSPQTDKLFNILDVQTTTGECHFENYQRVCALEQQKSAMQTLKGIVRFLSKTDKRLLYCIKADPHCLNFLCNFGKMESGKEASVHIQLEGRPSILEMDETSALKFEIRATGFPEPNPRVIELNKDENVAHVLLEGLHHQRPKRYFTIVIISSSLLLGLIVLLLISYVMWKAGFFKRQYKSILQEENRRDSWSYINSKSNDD
result-type: IC50 (nM)
Field format: number, assumed nM, no unit text.

Provide one value: measured IC50 of O=C(O)C[C@@H](NC(=O)[C@@H]1CCN1S(=O)(=O)c1cc(Cl)cc(Cl)c1)c1ccccc1
2.4

* * *

experiment: in vivo; conditions: Sprague-Dawley, rat, plasma, iv, 1 mg/kg
result-type: clearance (mL/min/kg)
Please state the figure in mL/min/kg; there is no need to write the unit.

O=C(O)C[C@@H](NC(=O)[C@@H]1CCCN1S(=O)(=O)c1cc(Cl)cc(Cl)c1)c1ccc(O)cc1; 22
COc1ccc([C@@H](CC(=O)O)NC(=O)[C@@H]2CCN2S(=O)(=O)c2cc(Cl)cc(Cl)c2)cn1; 55
O=C(O)C[C@@H](NC(=O)[C@@H]1CCN1S(=O)(=O)c1cc(Cl)cc(Cl)c1)c1ccccc1; 27

Note clearance for the compound shown: O=C(O)C[C@@H](NC(=O)[C@@H]1CCCN1S(=O)(=O)c1cc(Cl)cc(Cl)c1)c1ccc(OC2CC2)cc1
26

* * *

target: Integrin alpha-4/beta-1 (Homo sapiens, UniProt P05556+P13612); experiment: Inhibitory activity against alpha-4 beta-1 receptor (VLA-4) in human RPMI-8866 cells using [125I]-VCAM-Ig ligand; assay type: cell-based
// values below are reported log10 IC50
Transform log10 | Measure IC50 | Unit nM

Reference set, count: 4
CC(C)[C@H](CC(=O)O)NC(=O)[C@@H]1CCCN1S(=O)(=O)c1cc(Cl)cc(Cl)c1; 2.56
COc1ccc([C@@H](CC(=O)O)NC(=O)[C@]2(C)CCN2S(=O)(=O)c2cc(Cl)cc(Cl)c2)cc1; 0.18
COc1ccc([C@](C)(CC(=O)O)NC(=O)[C@@H]2CCN2S(=O)(=O)c2cc(Cl)cc(Cl)c2)cc1; 1.41
CC(C)(C)Oc1ccc([C@@H](CC(=O)O)NC(=O)[C@@H]2CCCN2S(=O)(=O)c2cc(Cl)cc(Cl)c2)cc1; -0.28

Read off the recorded log10 IC50 for O=C(O)C[C@@H](NC(=O)[C@@H]1CCCN1S(=O)(=O)c1cc(Cl)cc(Cl)c1)c1ccc(OC(F)(F)F)cc1
0.41

Identify measured log10 IC50 corresponding to CCOc1ccc([C@@H](CC(=O)O)NC(=O)[C@@H]2CCCN2S(=O)(=O)c2cc(Cl)cc(Cl)c2)cc1
-0.57

Read the entry O=C(O)C[C@@H](NC(=O)[C@@H]1CCN1S(=O)(=O)c1cc(Cl)cc(Cl)c1)c1ccc(Oc2ccccc2)cc1 and write its reported log10 IC50.
0.49

Return log10 IC50 for the following compound: O=C(O)C[C@@H](NC(=O)[C@@H]1CCN1S(=O)(=O)c1cc(Cl)cc(Cl)c1)c1ccc(Br)cc1
0.32

* * *

assay: in vivo; settings: Sprague-Dawley, rat, plasma, iv, 1 mg/kg
Rule: measured clearance below 70 mL/min/kg gets y; anything equal to or greater than 70 mL/min/kg gets n.

Answered examples (6):
CS(=O)(=O)c1ccc([C@@H](CC(=O)O)NC(=O)[C@@H]2CCCN2S(=O)(=O)c2cc(Cl)cc(Cl)c2)cc1; n
COc1ccc([C@@H](CC(=O)O)NC(=O)[C@]2(C)CCN2S(=O)(=O)c2cc(Cl)cc(Cl)c2)cc1; y
COc1ccc([C@](C)(CC(=O)O)NC(=O)[C@@H]2CCN2S(=O)(=O)c2cc(Cl)cc(Cl)c2)cc1; y
CCOc1ccc([C@@H](CC(=O)O)NC(=O)[C@@H]2CCCN2S(=O)(=O)c2cc(Cl)cc(Cl)c2)cc1; y
O=C(O)C[C@@H](NC(=O)[C@@H]1CCN1S(=O)(=O)c1cc(Cl)cc(Cl)c1)c1ccc(OC2CCCC2)cc1; n
O=C(O)C[C@@H](NC(=O)[C@@H]1CCN1S(=O)(=O)c1cc(Cl)cc(Cl)c1)c1ccc(OCC(F)(F)F)cc1; y

Now, please, on to the next compound.
Hello, I'm reviewing records and need to know if clearance of O=C(O)C[C@@H](NC(=O)[C@@H]1CCCN1S(=O)(=O)c1cc(Cl)cc(Cl)c1)c1ccc(OC(F)(F)F)cc1 is below 70 mL/min/kg. Could you check?
y
